tested on: LNCaP tumor xenograft-bearing CB17-SCID mice; type: in vivo, mouse; conditions: 24 h p.i.
Listed here are compounds together with their documented Biodistribution Lung.
Reply with just the number (in % ID/g).

>  <COMPOUND>
CCCCCCC(NC(=O)C(CCC(=O)O)NC(=O)NC(CCC(=O)NC(CCCNC(=O)CCC(=O)NCCCCC(NC(=O)C(CNC(=O)c1ccc([Si](F)(C(C)(C)C)C(C)(C)C)cc1)NC(=O)CN1CCN(CC(=O)[O-])CCN(CC(=O)[O-])CCN(CC(=O)[O-])CC1)C(=O)O)C(=O)O)C(=O)O)C(=O)O.[Lu+3] (centres unmarked) [^natLu/[^177Lu]Lu-7]

>  <TARGET DESC>
LNCaP tumor xenograft-bearing CB17-SCID mice

>  <Biodistribution Lung / % ID/g>
0.04

$$$$

Which value of Biodistribution Lung has been reported for CSCC[C@H](NC(=O)CC[C@H](NC(=O)N[C@@H](CCC(=O)N[C@H](CCCNC(=O)CCC(=O)NCCCC[C@@H](NC(=O)[C@@H](CNC(=O)c1ccc([Si](F)(C(C)(C)C)C(C)(C)C)cc1)NC(=O)CN1CCN(CC(=O)[O-])CCN(CC(=O)[O-])CCN(CC(=O)[O-])CC1)C(=O)O)C(=O)O)C(=O)O)C(=O)O)C(=O)O.[Lu+3] [^natLu/[^177Lu]Lu-5] in the records?
0.33

What do you have for C#CC[C@H](NC(=O)N[C@@H](CCC(=O)N[C@H](CCCNC(=O)CCC(=O)NCCCC[C@@H](NC(=O)[C@@H](CNC(=O)c1ccc([Si](F)(C(C)(C)C)C(C)(C)C)cc1)NC(=O)CN1CCN(CC(=O)[O-])CCN(CC(=O)[O-])CCN(CC(=O)[O-])CC1)C(=O)O)C(=O)O)C(=O)O)C(=O)O.[Lu+3] [^natLu/[^177Lu]Lu-10] ?
0.03

And then CC(C)(C)[Si](F)(c1ccc(C(=O)NC[C@@H](NC(=O)CN2CCN(CC(=O)[O-])CCN(CC(=O)[O-])CCN(CC(=O)[O-])CC2)C(=O)N[C@H](CCCCNC(=O)CCC(=O)NCCC[C@@H](NC(=O)CC[C@H](NC(=O)N[C@@H](CCc2nnn[nH]2)C(=O)O)C(=O)O)C(=O)O)C(=O)O)cc1)C(C)(C)C.[Lu+3] [^natLu/[^177Lu]Lu-11] , what is it?
0.05

Next entry: CC(C)(C)[Si](F)(c1ccc(C(=O)NC[C@@H](NC(=O)CN2CCN(CC(=O)[O-])CCN(CC(=O)[O-])CCN(CC(=O)[O-])CC2)C(=O)N[C@H](CCCCNC(=O)CCC(=O)NCCC[C@@H](NC(=O)CC[C@H](NC(=O)O[C@@H](CCC(=O)O)C(=O)O)C(=O)O)C(=O)O)C(=O)O)cc1)C(C)(C)C.[Lu+3] [^natLu/[^177Lu]Lu-3]
0.03
